- experiment: RAM signaling pathway blockade in yeast – S. cerevisiae, Pdr1DBD-CYC8 efflux-inhibited sensitized strain, primary screen (AID 1298);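 further: 0% = DMSO untreated cells without growth and 100% = 10 µM 1-NA-PP1 full growth; higher means more yeast growth rescued from 5-FOA killing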
- condition-summary: S. cerevisiae cbk1-as DSE1-URA3 strain, 5-FOA growth OD615, 2 d; at 50 µM; stronger effect = higher value
measured-endpoint: RAM network inhibition (%)
Please state the figure in %; there is no need to write the unit.

Observe how each entry below is paired with its result.
molecule: O=C1NC(=O)C(CC(=O)N(Cc2ccco2)C2(C(=O)NC3CCCCC3)CCCCC2)N1 (centres undefined)
numeric-readout: 2.23
//
molecule: CCCCCCNS(=O)(=O)c1nc2nc(C)cc(C)n2n1
numeric-readout: 1.21
//
molecule: NC(=O)c1sc2nc(N3CCCCC3)c3c(c2c1N)CCCC3
numeric-readout: 5.61

input: Look at this molecule and give its reported RAM network inhibition. `CCOc1ccccc1C(=O)Nc1cc(=O)n(C)c(=O)n1C`
output: -2.04

* * *

- experiment: S. cerevisiae growth inhibition in restrictive medium, OD615, pilot screen, restrictive growth control, yeast lifespan reduction project (AID 706);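 further: modified DeaD lifespan yeast strain shifted to restrictive glucose medium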
- condition-summary: OD615, 48 h, at 10 µM
Activity calls are given as the source filed them.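 The calls were made as follows: active = growth inhibition above a set limit, 3 SD over mean compound inhibition, in both replicates (cut at about 43% in these data); inconclusive = above the limit in only one replicate; inactive = at or below the limit in both replicates.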
Hi! Could you answer with just one of these? t = active, f = inactive

compound: Brc1ccc(-c2noc(CCc3ccccc3)n2)o1
assigned-label: f

compound: CCOc1ccc(N(CC(=O)Nc2ccc(F)c(F)c2)S(=O)(=O)c2c(C)noc2C)cc1
assigned-label: f

compound: O=C(Nc1ccccc1)c1cnc2n(c1=O)CCS2
assigned-label: f

input: Please let me know the test result on file for `Cc1cccc(-n2ncc3c(NC(C)C)ncnc32)c1` .
output: f

input: Please let me know the test result on file for COc1ccc(NC(=O)C(c2ccc(C)cc2)N(C)C(=O)c2cnccn2)cc1 (configuration not stated) .
output: f

input: Please let me know the test result on file for CCC1CCCCN1C(=O)CSc1nnc(-c2ccc(OC)cc2)o1 (configuration not stated) .
output: t

input: Please let me know the test result on file for O=C(Nc1ccncc1)C1CCCN(S(=O)(=O)c2cccc3cccnc23)C1 (configuration not stated) .
output: f

input: Please let me know the test result on file for `Cc1cccnc1-n1c(CCN2C(=O)c3ccccc3C2=O)nc2ccccc2c1=O` .
output: f

* * *

- experiment: H69AR cell proliferation blockers – human, duplicate replicates, primary screen (AID 580);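 further: 100% = mean luminescence of untreated wells and 0% = no signal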
- condition-summary: H69AR lung tumor cells viability, ATP luminescence, 72 h; at 10 µM; stronger effect = lower value
Mark met only when viability stays strictly below 90%. Values equal to the cut-off are not met.

Check out these entries, answers already filled in.
compound-string: CCCNC(=O)C1CCN(S(=O)(=O)c2ccc3nc4c(c(C(=O)O)c3c2)CCCCC4)CC1
assigned-label: not met
--
compound-string: Cc1cc(NC(=O)COc2cccc(C)c2C)no1
assigned-label: not met
--
compound-string: O=C(O)c1ccc(-c2ccc(O)c(F)c2)cc1
assigned-label: met

input: Quick check: viability of `O=C(NC1(C(=O)NC2CCCCC2)CCCCC1)c1ccc2c(c1)OCO2` under 90%?
output: not met

input: Quick check: viability of `CCn1c(C(=O)N2CCC(C(=O)N3CCN(c4ccccn4)CC3)CC2)cc2sccc21` under 90%?
output: met

* * *

- experiment: doxorubicin toxicity protection in MRP-1 cells – H69AR cells, CellTiter-Glo, duplicate, MRP-1 activator project, pilot screen (AID 807);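 further: compound pretreatment 18-22 h then 72 h combined with doxorubicin; 0% = doxorubicin alone and 100% = vehicle without doxorubicin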
- condition-summary: H69AR viability with doxorubicin, CellTiter-Glo luminescence; at 10 µM; stronger effect = higher value
measured-endpoint: viability increase (%)
Please state the figure in %; there is no need to write the unit.

Observe how each entry below is paired with its result.
compound: COc1ccc2[nH]c(C)c(CCN3C(=O)OC(C)(C)C3(C)O)c2c1 (stereo not given)
endpoint-unit: %
viability increase: -1.56

compound: CCc1c(C)n([O-])c2c([n+]1=O)CCC2
endpoint-unit: %
viability increase: -0.78

compound: CCc1nnc(NC(=O)C(C)Sc2ccccc2)s1 (stereo not given)
endpoint-unit: %
viability increase: 1.53

compound: O=C(c1ccc(Br)cc1)N1CCN(S(=O)(=O)c2ccccc2)CC1
endpoint-unit: %
viability increase: -1.15

input: Look at this compound and give its reported viability increase. `O=C(NCc1ccccc1)C1CCN(S(=O)(=O)c2cccc3cccnc23)CC1`
output: -2.29

input: Look at this compound and give its reported viability increase. `CN1CCN(C2=C(Cl)C(=O)N(c3cccc(Cl)c3)C2=O)CC1`
output: -1.68

input: Look at this compound and give its reported viability increase. CC(Sc1n[nH]c(=O)[nH]c1=O)C(=O)OCc1ccccc1 (stereo not given)
output: 0.49

input: Look at this compound and give its reported viability increase. `CC1(C)CC(=O)C(=CN2CCN(C(=O)c3ccco3)CC2)C(=O)C1`
output: 0.72

input: Look at this compound and give its reported viability increase. C=CCOC(=O)C1=C(C)N(C)C(=O)NC1c1cc2c(cc1Br)OCO2 (stereo not given)
output: -1.27

input: Look at this compound and give its reported viability increase. `COc1ccccc1CCNC(=O)CSc1nc(-c2ccco2)cc(C(F)(F)F)n1`
output: -1.65
